Test system: HNSC
Experiment: growth inhibition (% activity, log2 RLU normalised to DMSO / staurosporine); higher = more growth inhibition
Details: 33 µM
Catalogue of growth inhibition readings, one per entry.
Please give a number only; it is taken to be in %.

Recorded results for 5 molecules are shown here.
MOLECULE	MEASURED_METRIC	READOUT_UNIT	RECORDED_NUMBER
CS(=O)(=O)Nc1ccc([N+](=O)[O-])cc1Oc1ccccc1	growth inhibition	%	27.3
O=NN(CCCl)C(=O)NC1CCCCC1	growth inhibition	%	8.64
CCCCN(CCCC)CCCOC(=O)c1ccc(N)cc1	growth inhibition	%	8.9
CN1CCC(OC(c2ccccc2)c2ccccc2)CC1	growth inhibition	%	2.96
COC(=O)C1=C(C)NC(C)=C(C(=O)OC2CCCN(Cc3ccccc3)C2)C1c1cccc([N+](=O)[O-])c1 (stereo unspecified)	growth inhibition	%	33.4

// query I am curious: what growth inhibition value has been reported for "Cc1ncc([N+](=O)[O-])n1CCO" ?
// result 22.3

----------
Catalogue of growth inhibition readings, one per entry.
System: HGGX6 (H3.3 G34R paediatric high-grade glioma line)
Assay: growth inhibition (% activity, log2 RLU normalised to DMSO / staurosporine); higher = more growth inhibition
Details: 33 µM
Please give a number only; it is taken to be in %.

Recorded results for 5 molecules are shown here.
MOLECULE	growth inhibition [%]
NNC(=O)c1ccncc1.Nc1ccc(C(=O)O)c(O)c1	1.63
N#C[C@@H]1CCCN1C(=O)CNC12CC3CC(CC(O)(C3)C1)C2	-2.32
CO[C@H]1C[C@@H]2CC[C@@H](C)[C@@](O)(O2)C(=O)C(=O)N2CCCC[C@H]2C(=O)O[C@H]([C@H](C)C[C@@H]2CC[C@@H](O)[C@H](OC)C2)CC(=O)[C@H](C)/C=C(\C)[C@@H](O)[C@@H](OC)C(=O)[C@H](C)C[C@H](C)/C=C/C=C/C=C/1C	10.3
CCN1CCCC1CNC(=O)c1cc(S(=O)(=O)CC)c(N)cc1OC (centres undefined)	-1.1
Cc1cc(NS(=O)(=O)c2ccc(N)cc2)no1	-4.13

// query Form: Entry = "CC(=O)Oc1cc(C(F)(F)F)ccc1C(=O)O" | System = HGGX6 | growth inhibition = ____
// result 0.0377

// query Form: Entry = "C[C@@H](O[C@H]1OCCN(Cc2nn(P(=O)(O)O)c(=O)[nH]2)[C@H]1c1ccc(F)cc1)c1cc(C(F)(F)F)cc(C(F)(F)F)c1" | System = HGGX6 | growth inhibition = ____
// result 5.75

// query Form: Entry = CC(=O)N1CCN(c2ccc(OCC3COC(Cn4ccnc4)(c4ccc(Cl)cc4Cl)O3)cc2)CC1 (centres undefined) | System = HGGX6 | growth inhibition = ____
// result 9.98

----------
Catalogue of growth inhibition readings, one per entry.
Test system: HNSC
Test: growth inhibition (% activity, log2 RLU normalised to DMSO / staurosporine); higher = more growth inhibition
Settings: 33 µM
Please give a number only; it is taken to be in %.

Recorded results for 2 compounds are shown here.
COMPOUND	growth inhibition (%)
CC(C)[C@H](N)C(=O)OCC(CO)OCn1cnc2c(=O)[nH]c(N)nc21 (stereo not given in full)	0.0503
Nc1c2ccccc2nc2ccccc12	58.1

// query I am curious: what growth inhibition value has been reported for CCc1cccc2c3c([nH]c12)C(CC)(CC(=O)O)OCC3 (stereo not given) ?
// result 2.88

// query I am curious: what growth inhibition value has been reported for "CCOC(=O)[C@H](CCc1ccccc1)N[C@@H](C)C(=O)N1[C@H](C(=O)O)C[C@@H]2CCC[C@@H]21" ?
// result 1.84

// query I am curious: what growth inhibition value has been reported for COc1c(N2CCNC(C)C2)c(F)cc2c(=O)c(C(=O)O)cn(C3CC3)c12 (stereo not given) ?
// result 8.87

The origin of these recorded values is the supplement of paper PMC8253809.
